- experiment_summary: Hydrolytic rate in cynomolgus monkey hepatic microsomes assessed as 2-(4-((5,6-diphenylpyrazin-2-yl)(isopropyl)amino)butoxy)acetic acid production per mg of protein at 10 uM
- Assay type: ADME, Macaca fascicularis, Liver
attribute_measured: log10(Activity) (log10 of the value in nmol/min)

• CC(C)N(CCCCOCC(=O)NS(N)(=O)=O)c1cnc(-c2ccccc2)c(-c2ccccc2)n1 = -0.95
• CC(C)N(CCCCOCC(=O)NS(C)(=O)=O)c1cnc(-c2ccccc2)c(-c2ccccc2)n1 = -1.24
• CC(C)N(CCCCOCC(=O)NS(=O)(=O)N1CCOCC1)c1cnc(-c2ccccc2)c(-c2ccccc2)n1 = -0.68
• CC(C)N(CCCCOCC(=O)NS(=O)(=O)c1cccs1)c1cnc(-c2ccccc2)c(-c2ccccc2)n1 = -0.33
• CC(C)N(CCCCOCC(=O)NS(=O)(=O)C(F)(F)F)c1cnc(-c2ccccc2)c(-c2ccccc2)n1 = -1.22
• CC(C)N(CCCCOCC(=O)NS(=O)(=O)c1ccccc1)c1cnc(-c2ccccc2)c(-c2ccccc2)n1 = -0.15
• CC(C)N(CCCCOCC(=O)NS(=O)(=O)C(C)C)c1cnc(-c2ccccc2)c(-c2ccccc2)n1 = -0.82

====

Here, each record is paired with measured Activity data.
- Tested on: Liver microsomes
- experiment_summary: Hydrolytic rate in human hepatic microsomes assessed as 2-(4-((5,6-diphenylpyrazin-2-yl)(isopropyl)amino)butoxy)acetic acid production per mg of protein at 10 uM
- Format: ADME, Microsome
attribute_measured: Activity (nmol/min)

* CC(C)N(CCCCOCC(=O)NS(C)(=O)=O)c1cnc(-c2ccccc2)c(-c2ccccc2)n1 | 0.019
* CC(C)N(CCCCOCC(=O)NS(=O)(=O)C(C)C)c1cnc(-c2ccccc2)c(-c2ccccc2)n1 | 0.012
* CC(C)N(CCCCOCC(=O)NS(=O)(=O)c1cccs1)c1cnc(-c2ccccc2)c(-c2ccccc2)n1 | 0.008
* CC(C)N(CCCCOCC(=O)NS(=O)(=O)N1CCOCC1)c1cnc(-c2ccccc2)c(-c2ccccc2)n1 | 0.015
* CC(C)N(CCCCOCC(=O)NS(=O)(=O)c1ccccc1)c1cnc(-c2ccccc2)c(-c2ccccc2)n1 | 0.017
* CC(C)N(CCCCOCC(=O)NS(=O)(=O)C(F)(F)F)c1cnc(-c2ccccc2)c(-c2ccccc2)n1 | 0.024
* CC(C)N(CCCCOCC(=O)NS(N)(=O)=O)c1cnc(-c2ccccc2)c(-c2ccccc2)n1 | 0.03

====

Here, each record is paired with measured Tmax data.
- Tested on: Cynomolgus monkey
- experiment_summary: Tmax in cynomolgus monkey assessed as 2-(4-((5,6-diphenylpyrazin-2-yl)(isopropyl)amino)butoxy)acetic acid level at 1 mg/kg, po
- Assay type: ADME, organism-based, Macaca fascicularis
- Design: dose 1 mg/kg, route oral
- condition_summary: in vivo
attribute_measured: Tmax

- CC(C)N(CCCCOCC(=O)NS(=O)(=O)C(F)(F)F)c1cnc(-c2ccccc2)c(-c2ccccc2)n1: 4 h
- CC(C)N(CCCCOCC(=O)NS(=O)(=O)C(C)C)c1cnc(-c2ccccc2)c(-c2ccccc2)n1: 10 h
- CC(C)N(CCCCOCC(=O)NS(N)(=O)=O)c1cnc(-c2ccccc2)c(-c2ccccc2)n1: 6 h
- CC(C)N(CCCCOCC(=O)NS(C)(=O)=O)c1cnc(-c2ccccc2)c(-c2ccccc2)n1: 14 h

====

- Test system: Cynomolgus monkey
- experiment_summary: Cmax in cynomolgus monkey assessed as 2-(4-((5,6-diphenylpyrazin-2-yl)(isopropyl)amino)butoxy)acetic acid level at 1 mg/kg, po
- Format: ADME, organism-based, Macaca fascicularis
- Parameters: dose 1 mg/kg, route oral
- condition_summary: in vivo
Here, each record is paired with measured Cmax data.
attribute_measured: Cmax (ng/mL)

* CC(C)N(CCCCOCC(=O)NS(C)(=O)=O)c1cnc(-c2ccccc2)c(-c2ccccc2)n1 | 35
* CC(C)N(CCCCOCC(=O)NS(N)(=O)=O)c1cnc(-c2ccccc2)c(-c2ccccc2)n1 | 20
* CC(C)N(CCCCOCC(=O)NS(=O)(=O)C(C)C)c1cnc(-c2ccccc2)c(-c2ccccc2)n1 | 13
* CC(C)N(CCCCOCC(=O)NS(=O)(=O)C(F)(F)F)c1cnc(-c2ccccc2)c(-c2ccccc2)n1 | 31
